Experiment: Acute toxicity (Litchfield & Wilcoxon method)
Settings: rat, in vivo, iv, I.V., male
value_type: LD50 (mg/kg)
Give a bare numeral; the unit mg/kg is implied.

Query: Given CCc1cc(S(=O)(=O)O)c2cc(C(C)C)cccc1-2 [compound 3] , state its recorded LD50.
Result: 130

====

Molecular target: pepsin (Sus scrofa)
Construct: purchased
Experiment: Anti-peptic activity in vitro (bovine serum albumin as substrate)
Assay type: biochemical
Conditions: sample concentration 0.125 mg/ml
value_type: inhibition at 125 µg/mL (%)
# output: bare number, implied unit %

Query: Entry under review: Cc1cc(S(=O)(=O)O)c2c(C)ccc(C(C)C)cc1-2 [GAS, sodium guaiazulene-3-sulfonate, reference compound] . Reported inhibition at 125 µg/mL?
Result: 14.6

Query: Quick check: inhibition at 125 µg/mL of CCc1cc(S(=O)(=O)O)c2cc(C(C)C)cccc1-2 [compound 3] ?
Result: 17.3

Query: Report inhibition at 125 µg/mL for CCc1cc(S(=O)(=O)O)c2ccc(C(C)C)ccc1-2 [compound 4] please.
Result: 17.3

Query: Look up inhibition at 125 µg/mL: CC(C)=CCCC(C)c1cc(S(=O)(=O)O)c2cccccc1-2 (stereo not shown) [compound 5]
Result: 0.26

====

Experiment: Stability on storage (% residue of the original compound)
Format: physicochemical
Conditions: 40° C., 96 hours
Hi there, I'd appreciate the recorded remaining at 96 h for every entry that follows.
Quick note: give the figure in %, leave out the unit.

Query: Fill in the blank: the reported remaining at 96 h of Cc1cc(S(=O)(=O)O)c2c(C)ccc(C(C)C)cc1-2 [GAS, sodium guaiazulene-3-sulfonate, reference compound] is ____.
Result: 100

Query: Param item = CCc1cc(S(=O)(=O)O)c2cc(C(C)C)cccc1-2 [compound 3] ; retrieve measured remaining at 96 h.
Result: 100

====

Biological target: pepsin (Sus scrofa)
Construct: purchased
Assay: Anti-peptic activity in vitro (bovine serum albumin as substrate)
Type: biochemical
Details: obtained graphically; read-out: ID50 (50% inhibiting dose) (converted)
value_type: IC50 (µM)
Record the value in µM, omitting the unit from your answer.

Query: # query: IC50 of entry CCc1cc(S(=O)(=O)O)c2ccc(C(C)C)ccc1-2
Result: 1830

Query: Bench note: what IC50 did CC(C)=CCCC(C)c1cc(S(=O)(=O)O)c2cccccc1-2 (stereo not shown) show?
Result: 3790

Query: Need IC50, item CCc1cc(S(=O)(=O)O)c2cc(C(C)C)cccc1-2
Result: 1070

Query: Which value of IC50 has been reported for Cc1cc(S(=O)(=O)O)c2c(C)ccc(C(C)C)cc1-2 [GAS, sodium guaiazulene-3-sulfonate, reference compound] in the records?
Result: 1290

====

Target: pepsin (Sus scrofa, UniProt P00791)
Construct: purchased
Sequence (P00791 60-385): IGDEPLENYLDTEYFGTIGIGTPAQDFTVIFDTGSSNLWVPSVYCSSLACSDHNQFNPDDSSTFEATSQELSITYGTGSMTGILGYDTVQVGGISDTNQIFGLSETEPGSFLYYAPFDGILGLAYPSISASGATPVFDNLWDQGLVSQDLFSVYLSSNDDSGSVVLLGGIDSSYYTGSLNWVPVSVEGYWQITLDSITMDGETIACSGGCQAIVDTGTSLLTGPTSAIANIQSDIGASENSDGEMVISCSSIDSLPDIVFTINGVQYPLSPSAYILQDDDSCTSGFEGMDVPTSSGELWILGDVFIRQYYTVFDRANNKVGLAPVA
Assay: Anti-peptic activity in vitro (bovine serum albumin as substrate)
Type: biochemical
Conditions: sample concentration 0.250 mg/ml
Method: Anti-peptic activity of the compounds is tested in vitro according to V. K. Thiemer (Arznei-Forsch 22 (6), PP. 1086, 1972), using bovine serum albumin as a substrate and commercially available pepsin. Also ID50 (50% inhibiting dose) is obtained graphically.
value_type: inhibition at 250 µg/mL
Your answer should be a number followed by the unit of measure.

Query: Recorded inhibition at 250 µg/mL of CC(C)=CCCC(C)c1cc(S(=O)(=O)O)c2cccccc1-2 (stereo not shown) , please.
Result: 3.57%

Query: Can you look up the measured inhibition at 250 µg/mL of CCc1cc(S(=O)(=O)O)c2cc(C(C)C)cccc1-2 for me?
Result: 47.6%

Query: Consider the molecule shown here: CCc1cc(S(=O)(=O)O)c2ccc(C(C)C)ccc1-2 What is its recorded inhibition at 250 µg/mL?
Result: 28.9%

Query: State the recorded inhibition at 250 µg/mL for this entry: Cc1cc(S(=O)(=O)O)c2c(C)ccc(C(C)C)cc1-2 [GAS, sodium guaiazulene-3-sulfonate, reference compound]
Result: 50.4%

====

Experiment: Stability on storage (% residue of the original compound)
Assay type: physicochemical
Conditions: 80° C., 288 hours
value_type: remaining at 288 h
Report as: number unit

Query: Can you share its remaining at 288 h? I mean this compound: Cc1cc(S(=O)(=O)O)c2c(C)ccc(C(C)C)cc1-2 [GAS, sodium guaiazulene-3-sulfonate, reference compound]
Result: 1.5%

Query: # query: remaining at 288 h of entry CCc1cc(S(=O)(=O)O)c2cc(C(C)C)cccc1-2
Result: 100%

These entries and their values trace back to patent US4595694A.
